System: Phytophthora infestans (PHYTIN)
Assay type: in vivo
Details: late blight on tomato, protective application, metabolite conc. 7.2 ppm, visually assessed 5-7 days after inoculation
Where a SMILES comes first, the peptide text is derived from it. Bridges are numbered along the chain shown (N, C = ends). [ ]: non-standard residue; d: D form. The star is where a group is joined. ξ: configuration not given here. Pentadecanoyl(3ξ-OH,15-Gua) = N=C(N)NCCCCCCCCCCCCC(O)CC(=O)*; d(aThr) = C[C@@H](O)[C@@H](N)C(=O)O; Thr(3ξ) = CC(O)[C@H](N)C(=O)O; ξY = NC(Cc1ccc(O)cc1)C(=O)O
# % efficacy (% fungal attack) values compiled below

CCC(C)C1NC(=O)C(NC(=O)CC(O)CCCCCCCCCCCCNC(=N)N)C(C)OC(=O)C(C)NC(=O)C(CCC(N)=O)NC(=O)C(C(C)O)NC(=O)C(Cc2ccc(O)cc2)NC1=O (stereo not shown) [Compound 1B] ({Pentadecanoyl(3ξ-OH,15-Gua)}-TIYTQA; ester 1-C; configuration not given here) :: 44%
CC(C)[C@@H]1NC(=O)[C@@H](C(C)C)NC(=O)[C@@H](NC(=O)CC(O)CCCCCCCCCCCCN=C(N)N)C(C)OC(=O)[C@@H](C)NC(=O)[C@@H](CCC(N)=O)NC(=O)[C@@H]([C@H](C)O)NC1=O (stereo in doubt) :: 4%
CC(C)[C@@H]1NC(=O)[C@@H](C(C)C)NC(=O)[C@@H](NC(=O)CC(O)CCCCCCCCCCCCN=C(N)N)[C@@H](C)OC(=O)[C@@H](C)NC(=O)[C@@H](CC(N)=O)NC(=O)[C@@H]([C@@H](C)O)NC1=O (stereo partly shown) [Compound 5A, fusaricidin A] ({Pentadecanoyl(3ξ-OH,15-Gua)}-T[dV]V[d(aThr)][dN][dA]; ester 1-C) :: 15%

Next:
In plain terms, CC1OC(=O)[C@@H](C)NC(=O)[C@@H](CCC(N)=O)NC(=O)[C@@H]([C@H](C)O)NC(=O)C(Cc2ccc(O)cc2)NC(=O)[C@@H](C(C)C)NC(=O)[C@H]1NC(=O)CC(O)CCCCCCCCCCCCN=C(N)N (stereo partly shown) [Compound 2B, fusaricidin D] ({Pentadecanoyl(3ξ-OH,15-Gua)}-[Thr(3ξ)][dV][ξY][dT][dQ][dA]; ester 1-C) has a documented % efficacy (% fungal attack) of 0%
